Target: Glutamate receptor 2 (Rattus norvegicus)
Sequence (P19491 whole entry): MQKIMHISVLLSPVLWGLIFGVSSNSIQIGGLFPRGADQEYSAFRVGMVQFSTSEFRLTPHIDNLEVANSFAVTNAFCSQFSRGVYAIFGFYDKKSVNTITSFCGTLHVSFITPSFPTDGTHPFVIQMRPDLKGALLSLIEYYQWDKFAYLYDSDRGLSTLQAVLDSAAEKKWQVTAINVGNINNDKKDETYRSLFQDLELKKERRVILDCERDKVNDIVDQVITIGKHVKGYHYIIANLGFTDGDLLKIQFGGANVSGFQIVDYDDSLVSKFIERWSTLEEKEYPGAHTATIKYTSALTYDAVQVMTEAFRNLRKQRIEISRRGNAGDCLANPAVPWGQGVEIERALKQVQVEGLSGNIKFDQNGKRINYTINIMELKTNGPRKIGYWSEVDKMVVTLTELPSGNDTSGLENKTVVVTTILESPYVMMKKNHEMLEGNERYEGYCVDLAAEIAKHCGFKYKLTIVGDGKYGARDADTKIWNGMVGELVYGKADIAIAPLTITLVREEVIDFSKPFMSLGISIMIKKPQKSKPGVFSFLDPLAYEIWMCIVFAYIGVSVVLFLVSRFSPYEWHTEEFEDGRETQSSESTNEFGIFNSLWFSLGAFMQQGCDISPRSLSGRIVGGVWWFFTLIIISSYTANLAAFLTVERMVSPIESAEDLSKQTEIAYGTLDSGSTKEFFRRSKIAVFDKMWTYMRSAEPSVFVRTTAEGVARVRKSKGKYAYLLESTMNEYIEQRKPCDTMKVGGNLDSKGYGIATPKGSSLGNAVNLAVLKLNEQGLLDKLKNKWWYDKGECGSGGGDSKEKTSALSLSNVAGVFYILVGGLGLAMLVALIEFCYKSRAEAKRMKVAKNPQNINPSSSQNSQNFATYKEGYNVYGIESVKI
Assay: Displacement of [3H]AMPA from rat iGluR2 receptor expressed in Sf9 cells baculovirus system after 1 to 2 hrs by liquid scintillation counting
property.measured: Ki (nM)

molecule: NC(Cc1nonc1O)C(=O)O (single isomer, unassigned; (+))
property.measured: Ki
endpoint.unit: nM
observed.measurement: 43
--
molecule: NC(Cc1nonc1O)C(=O)O (stereo in doubt; (-)-10)
property.measured: Ki
endpoint.unit: nM
observed.measurement: 250

###

Biological target: Glutamate receptor ionotropic, kainate 2 (Rattus norvegicus)
Sequence (P42260 whole entry): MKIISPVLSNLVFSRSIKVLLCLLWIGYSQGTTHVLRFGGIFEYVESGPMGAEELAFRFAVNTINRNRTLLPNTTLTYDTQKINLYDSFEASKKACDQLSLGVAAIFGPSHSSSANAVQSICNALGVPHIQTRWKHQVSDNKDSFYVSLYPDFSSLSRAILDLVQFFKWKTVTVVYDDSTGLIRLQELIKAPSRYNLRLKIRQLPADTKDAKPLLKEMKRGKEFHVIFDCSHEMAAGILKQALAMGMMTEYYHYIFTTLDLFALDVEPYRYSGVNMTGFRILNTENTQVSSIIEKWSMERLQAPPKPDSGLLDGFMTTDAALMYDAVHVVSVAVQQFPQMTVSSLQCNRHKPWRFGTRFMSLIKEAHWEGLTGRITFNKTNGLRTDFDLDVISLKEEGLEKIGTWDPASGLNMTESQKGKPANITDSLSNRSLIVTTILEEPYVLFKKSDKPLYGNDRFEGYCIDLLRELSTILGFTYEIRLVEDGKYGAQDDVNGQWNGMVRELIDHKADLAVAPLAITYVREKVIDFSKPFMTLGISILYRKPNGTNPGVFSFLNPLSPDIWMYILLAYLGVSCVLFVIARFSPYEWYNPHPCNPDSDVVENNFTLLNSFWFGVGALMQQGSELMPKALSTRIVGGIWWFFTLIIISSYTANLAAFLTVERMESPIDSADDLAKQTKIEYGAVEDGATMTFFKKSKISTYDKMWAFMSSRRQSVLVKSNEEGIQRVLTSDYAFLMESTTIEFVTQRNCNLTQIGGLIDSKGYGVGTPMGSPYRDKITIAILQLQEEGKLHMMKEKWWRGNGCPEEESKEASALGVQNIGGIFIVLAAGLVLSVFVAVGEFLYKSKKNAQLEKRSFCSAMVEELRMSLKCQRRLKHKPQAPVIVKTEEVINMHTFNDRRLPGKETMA
Experiment: Displacement of [3H]SYM2081 from rat iGluR6 receptor expressed in Sf9 cells baculovirus system after 1 to 2 hrs by liquid scintillation counting
pKi: −log10 of the molar value.
Reported pKi values follow for various molecules

molecule: NC(Cc1nonc1O)C(=O)O (single isomer, unassigned; (+))
assay.system: Glutamate receptor ionotropic, kainate 2 (Rattus norvegicus)
pKi: < 4.00

molecule: NC(CCc1nonc1O)C(=O)O (stereo in doubt; (+)-15)
assay.system: Glutamate receptor ionotropic, kainate 2 (Rattus norvegicus)
pKi: < 3.00

molecule: NC(CCCc1nonc1O)C(=O)O (stereo in doubt; (+)-18)
assay.system: Glutamate receptor ionotropic, kainate 2 (Rattus norvegicus)
pKi: < 3.00

###

Reported pKi values follow for various molecules
Biological target: Glutamate NMDA receptor
Experiment: Displacement of [3H]CGP39653 from NMDA receptor in Sprague-Dawley rat brain membranes
Type: cell membranes, Membrane
pKi: −log10 of the molar value.

molecule: NC(CCCc1nonc1O)C(=O)O (stereo in doubt; (-)-18)
qualifier.operator: =
pKi: 5.74

molecule: NC(CCc1nonc1O)C(=O)O (racemic)
qualifier.operator: =
pKi: 5.31

molecule: NC(CCCc1nonc1O)C(=O)O (stereo in doubt; (+)-18)
qualifier.operator: =
pKi: 4.66

molecule: NC(CCc1nonc1O)C(=O)O (single isomer, unassigned; (-))
qualifier.operator: =
pKi: 5.47

molecule: NC(CCCc1nonc1O)C(=O)O (racemic)
qualifier.operator: =
pKi: 5.54

molecule: NC(Cc1nonc1O)C(=O)O (racemic)
qualifier.operator: =
pKi: 4.80

molecule: C=C(C)[C@H]1CN[C@H](C(=O)O)[C@H]1CC(=O)O
qualifier.operator: <
pKi: 4.00

molecule: CN[C@H](CC(=O)O)C(=O)O
qualifier.operator: =
pKi: 5.21

molecule: NC(Cc1nonc1O)C(=O)O (stereo in doubt; (-)-10)
qualifier.operator: <
pKi: 4.00

molecule: NC(C(=O)O)c1nonc1O (racemic)
qualifier.operator: =
pKi: 5.20

molecule: NC(CCc1nonc1O)C(=O)O (stereo in doubt; (+)-15)
qualifier.operator: =
pKi: 4.14

molecule: NC(Cc1nonc1O)C(=O)O (single isomer, unassigned; (+))
qualifier.operator: =
pKi: 4.89

###

Target: Glutamate receptor 2 (Homo sapiens, UniProt P42262)
Sequence (P42262 whole entry): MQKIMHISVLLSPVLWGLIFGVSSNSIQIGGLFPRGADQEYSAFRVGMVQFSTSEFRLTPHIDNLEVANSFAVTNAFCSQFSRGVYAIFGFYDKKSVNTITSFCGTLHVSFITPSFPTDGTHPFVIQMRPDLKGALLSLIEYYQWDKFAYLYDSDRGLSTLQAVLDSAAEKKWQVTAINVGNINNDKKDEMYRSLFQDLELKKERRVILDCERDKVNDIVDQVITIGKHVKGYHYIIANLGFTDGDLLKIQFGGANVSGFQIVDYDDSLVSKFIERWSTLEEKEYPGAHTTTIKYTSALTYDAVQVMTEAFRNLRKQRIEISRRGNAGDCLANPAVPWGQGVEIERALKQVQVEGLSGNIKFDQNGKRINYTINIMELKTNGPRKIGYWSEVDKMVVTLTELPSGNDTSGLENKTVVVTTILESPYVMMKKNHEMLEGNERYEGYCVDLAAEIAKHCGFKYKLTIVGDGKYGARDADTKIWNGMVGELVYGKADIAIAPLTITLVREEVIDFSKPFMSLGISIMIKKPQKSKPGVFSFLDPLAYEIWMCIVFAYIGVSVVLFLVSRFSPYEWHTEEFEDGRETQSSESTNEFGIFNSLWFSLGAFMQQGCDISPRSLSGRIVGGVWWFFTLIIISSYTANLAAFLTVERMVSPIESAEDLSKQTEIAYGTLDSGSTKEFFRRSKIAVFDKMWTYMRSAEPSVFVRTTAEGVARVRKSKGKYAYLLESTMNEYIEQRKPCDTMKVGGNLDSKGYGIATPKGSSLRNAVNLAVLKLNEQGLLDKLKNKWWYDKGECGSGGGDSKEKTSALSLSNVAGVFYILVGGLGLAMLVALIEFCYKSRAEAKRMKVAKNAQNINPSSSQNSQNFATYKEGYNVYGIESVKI
Assay: Activity at recombinant iGluR2 receptor expressed in Xenopus laevis oocytes using holding potential of -15 to -20 mV by TEVC electrophysiology
pEC50: −log10 of the molar value.

molecule: NC(CCCc1nonc1O)C(=O)O (stereo in doubt; (+)-18)
pEC50: 3.31
--
molecule: NC(Cc1nonc1O)C(=O)O (stereo in doubt; (-)-10)
pEC50: 4.37
--
molecule: NC(Cc1nonc1O)C(=O)O (single isomer, unassigned; (+))
pEC50: 5.03
--
molecule: NC(CCc1nonc1O)C(=O)O (stereo in doubt; (+)-15)
pEC50: 3.31

Data provenance is ChEMBL document CHEMBL1157748.
